- TARGET_OR_SYSTEM: UniProt Q06124
- METHOD: Measurement of SHP2 protein degradation in NCI-H358 cells (western blotting)
- Assay type: cell-based
- Parameters: endogenous in cells; host or cells: NCI-H358
- CONDITION_DETAILS: 0.01 μM, harvested after 24 hours
- Method: H358 cells were treated with the synthesized Example compounds, and the amount of SHP2 protein present in the cells was measured using western blotting detection. The protocol for the experiment using H358 cells is as follows. […] [Cell lysis and sample preparation] […] After shaking for 10 seconds with a SYNERGY H1 microplate reader from BioTek, the absorbance was measured at 562 nm. The protein was quantified using the measured value to make a sample, which was then incubated at 70° C. for 10 minutes. […]
QUANTITY_KIND: SHP2% degradation (%)

Below, 5 molecules whose answers are already recorded.
MOLECULE	QUANTITY_KIND	OBSERVED_RESULT
CC(=O)N[C@H](C(=O)N1C[C@H](O)C[C@H]1C(=O)NCc1ccc(-c2scnc2C)cc1OC1CCN(C(=O)C2CCN(c3cccc(Sc4cnc(N5CCC(C)(N)CC5)c(CO)n4)c3Cl)CC2)CC1)C(C)(C)C	SHP2% degradation	92.4
Cc1ncsc1-c1ccc(CNC(=O)[C@@H]2C[C@@H](O)CN2C(=O)[C@@H](NC(=O)CO)C(C)(C)C)c(OC2CCN(C(=O)C3CCN(c4nccc(Sc5cnc(N6CCC7(CC6)CO[C@@H](C)[C@H]7N)c(CO)n5)c4Cl)CC3)CC2)c1	SHP2% degradation	98.8
Cc1ncsc1-c1ccc(CNC(=O)[C@@H]2C[C@@H](O)CN2C(=O)[C@H](C(C)C)n2cc(C3CC3)nn2)c(OC2CCN(C(=O)C3CCN(c4nccc(Sc5cnc(N6CCC(C)(N)CC6)c(CO)n5)c4Cl)CC3)CC2)c1	SHP2% degradation	98.4
CC(=O)N[C@H](C(=O)N1C[C@H](O)C[C@H]1C(=O)NCc1ccc(-c2scnc2C)cc1OC1CCN(C(=O)C2CCN(c3nccc(Sc4cnc(N5CCC(C)(CN)CC5)cn4)c3Cl)CC2)CC1)C(C)C	SHP2% degradation	70.5
CC(=O)N[C@H](C(=O)N1C[C@H](O)C[C@H]1C(=O)NCc1ccc(-c2scnc2C)cc1OC1CCN(C(=O)C2CCN(c3nccc(Sc4cnc(N5CCC(C)(N)CC5)c(CO)n4)c3Cl)CC2)CC1)C(C)(C)C	SHP2% degradation	96.1

1 = Cc1ncsc1-c1ccc(CNC(=O)[C@@H]2C[C@@H](O)CN2C(=O)[C@@H](NC(=O)CC#N)C(C)(C)C)c(OC2CCN(C(=O)C3CCN(c4nccc(Sc5cnc(N6CCC7(CC6)CO[C@@H](C)[C@H]7N)c(CO)n5)c4Cl)CC3)CC2)c1
2 = CC(=O)N[C@H](C(=O)N1C[C@H](O)C[C@H]1C(=O)NCc1ccc(-c2scnc2C)cc1O[C@H]1CC[C@H](C(=O)N2CCC(c3nccc(Sc4cnc(N5CCC(C)(CN)CC5)cn4)c3Cl)CC2)CC1)C(C)(C)C
3 = Cc1cnn(C(C(=O)N2C[C@H](O)C[C@H]2C(=O)NCc2ccc(-c3scnc3C)cc2OC2CCN(C(=O)C3CCN(c4nccc(Sc5cnc(N6CCC(C)(CN)CC6)cn5)c4Cl)CC3)CC2)C(C)C)c1 (stereo partly drawn) [Example 99]
Task field, ranking: reported SHP2% degradation, descending order. Your reply should list the labels following the order given in the request. 1, 3, 2
(1: 97.0%, 3: −4.8%, 2: −34.6%)
